- assayed.target: T1, prostate-specific antigen (PSA), uncomplexed free PSA (Homo sapiens, UniProt P07288)
- T1 construct: prostate-specific antigen (PSA), human kallikrein; uncomplexed (free) form; also called fPSA; source: bought: Merck (ELISA)
- T1 sequence (P07288 25-261, one chain of several): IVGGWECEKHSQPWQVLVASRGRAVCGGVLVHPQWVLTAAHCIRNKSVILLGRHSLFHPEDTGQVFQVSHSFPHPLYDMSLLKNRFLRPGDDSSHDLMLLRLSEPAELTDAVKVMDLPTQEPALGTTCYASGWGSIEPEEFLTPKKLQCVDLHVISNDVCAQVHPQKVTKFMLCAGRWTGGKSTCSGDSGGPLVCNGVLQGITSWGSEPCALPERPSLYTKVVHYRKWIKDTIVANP
- assay.procedure: SPR; Biacore 2000; PSA immobilised on a CM4 chip by amine coupling (900-1000 RU); antibodies at 100, 50, 25, 12.5 and 10 nM in HSP-buffer flown at 30 uL/min; association 4-5 min, dissociation up to 480 min; bi-exponential fits to binding and dissociation curves; KD = Koff/Kon
- applied.conditions: both partners purified
Let's look at some binders and their measured koff.
The figure you give is taken to be in s⁻¹; do not add the unit.

State the recorded koff for this entry: humanized 5A10 IgG1 (antibody, V domains shown, heavy chain variable domain of h5A10; IgG1 heavy chain constant region; light chain variable domain of h5A10; light chain constant region; not described, only the plasmid name p5A10VlhDhK hints at human kappa; IgG1; Light chain constant region probably human kappa (surmised from the plasmid name and the Vk1 template); also called h5A10; humanized antibody h5A10; source: HEK293 cells, transfected; …) VH: QVTLKESGPALVKPTQTLTLTCTFSGFSLSTTGMGVSWIRQPPGKALEWLAHIYWDDDKRYSTSLKTRLTISEDSSKNQVVLTMTNMDPVDTATYYCARKGYYGYFDYWGQGTLVTVSS VL: DIQMTQSPSSLSASVGDRVTVTCRASQNVNTDVAWYQQKPGKAPKALIFSTSYLQSGVPSRFSGSGSGTDFTLTISSLQPEDFATYYCQQYSNYPLTFGQGTKVEIK
4.8e-06

State the recorded koff for this entry: murine 5A10 conjugated with p-SCN-Bn-CHX-A''-DTPA (antibody, V domains shown, as the heavy chain variable domain of m2; murine IgG1 heavy chain constant region, as in m2; as the light chain variable domain of m2; as the light chain constant region of m2; Murine IgG1; also called m5A10-DTPA; DTPA-m5A10; source: provided by the University of Turku (Finland); conjugated with p-SCN-Bn-CHX-A''-DTPA and separated from free chelate on a NAP-5 column) VH: EVQLVESGPGILQPSQTLSLTCSFSGFSLSTTGMGVSWIRQPSGKGLEWLAHLYWDEDKRYNPSLKSRLTISEDSSRNQVFLKITSVGPADSATYYCARKGYYGYFDYWGQGTALTVSS VL: DIVMTQSQKFMSTSVGDRVSVTCKASQNVNTDVAWYQQKPGQSPKALIFSTSYRSSGVPDRFTGSGSGTDFTLTITNVQSEDLAEYFCQQYSNYPLTFGAGTKVDLN
6.3e-06

State the recorded koff for this entry: humanized 5A10 conjugated with p-SCN-Bn-CHX-A''-DTPA (antibody, V domains shown, as the heavy chain variable domain of m1; IgG1 heavy chain constant region, as in m1; as the light chain variable domain of m1; as the light chain constant region of m1; not described; IgG1; 111In labelling used the 3:1 conjugate, 177Lu labelling the 12:1 conjugate; also called h5A10-DTPA; DTPA-h5A10; source: HEK293 cells, transfected; purified by Protein G chromatography; conjugated with …) VH: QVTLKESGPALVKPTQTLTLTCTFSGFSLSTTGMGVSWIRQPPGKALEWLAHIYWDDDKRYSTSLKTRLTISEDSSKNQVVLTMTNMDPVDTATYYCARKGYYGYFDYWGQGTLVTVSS VL: DIQMTQSPSSLSASVGDRVTVTCRASQNVNTDVAWYQQKPGKAPKALIFSTSYLQSGVPSRFSGSGSGTDFTLTISSLQPEDFATYYCQQYSNYPLTFGQGTKVEIK
4.8e-06
